Measured cell viability accompanies every entry in the list below.
# System: P12-Ichikawa
# Measurement Notes: cell viability relative to DMSO control; higher = less cytotoxic
# Condition: RPMI 5 mM glucose + 10% FBS; 48 h; 5.12 µM
Quantity Name: cell viability (%)

1) C[C@H](CCC(=O)O)[C@H]1CC[C@H]2[C@@H]3[C@H](O)C[C@@H]4C[C@H](O)CC[C@]4(C)[C@H]3CC[C@]12C; 88.1
2) O=C(O)CCCCCC(=O)NN=C1CCCC1; 104
3) C=CC(=O)Nc1cccc(Sc2nc(Nc3ccc(N4CCN(C)CC4)cc3)ncc2Cl)c1; 124
4) c1cc(-c2cnn3cc(-c4ccc(OCCN5CCCCC5)cc4)cnc23)ccn1; 85.9
5) COc1ccc(/C=C\c2cc(OC)c(OC)c(OC)c2)cc1NC(=O)[C@H](N)CO; 8.08
6) O=C(/C=C/c1ccc(/C=C/C(=O)Nc2ccc(C3=NCCN3)cc2)cc1)Nc1ccc(C2=NCCN2)cc1; 112
7) CC(=O)N(C)C1(c2ccccc2)CCN(CCC[C@]2(c3ccc(Cl)c(Cl)c3)CCCN(C(=O)c3ccccc3)C2)CC1; 55.8
8) COc1cc(NCc2ccc3nc(N)nc(N)c3c2C)cc(OC)c1OC; 68.6
9) CCNC(=O)CCC/C=C\C[C@@H]1[C@@H](/C=C/C(O)CCc2ccccc2)[C@@H](O)C[C@@H]1O (stereo not given in full); 109
10) C[C@]12CCC3c4ccc(O)cc4CCC3C1CCC2=O (stereo not given in full); 87.4

###

# Test system: SEM cells
# Measurement Notes: cell viability relative to DMSO control; higher = less cytotoxic
# Condition: HPLM + 10% dialyzed FBS; 48 h; 0.19 µM
Measured cell viability accompanies every entry in the list below.
Quantity Name: cell viability (%)

1. CCCCc1ccc2[nH]c(NC(=O)OC)nc2c1; 26.6
2. N#C/C(=C(/N)Sc1ccc(N)cc1)c1ccccc1C(F)(F)F; 124
3. CC(C)(N)c1ccc(-c2nc3ccccc3nc2-c2ccccc2)cc1; 15.5
4. CN1C(=O)/C(=C(NC2=CC=C(I)C=C2F)\C3=C1\N=C/N(C[C@@H](O)CO)C3=O)F; 79.6
5. CC(C)C1CCC(C(=O)N[C@H](Cc2ccccc2)C(=O)O)CC1 (stereo partly drawn); 26.3
6. CCCCCNC(=N)N/N=C/c1c[nH]c2ccc(OC)cc12; 130
7. CCn1nnc2c(N3CCOCC3)nc(-c3ccc(NC(=O)Nc4ccc(C(=O)N5CCN(C)CC5)cc4)cc3)nc21; 58.2
8. Nc1nc(F)nc2c1ncn2[C@@H]1O[C@H](COP(=O)(O)O)[C@@H](O)[C@@H]1O; 117
9. CC(C(C)N1CC(=O)NC(=O)C1)N1CC(=O)NC(=O)C1 (stereo not drawn); 128
10. COc1ccccc1[C@H](c1cccc2ccccc12)[C@@](C)(C#N)C(=O)N1CCC(c2cccc(C(F)(F)F)c2)CC1; 103
11. CC/C=C\C[C@H]1C(=O)CC[C@@H]1CC(=O)OC; 118
12. C[C@]1(O)CC(C1)C2=NC(=C3[N]2C=CN=C3N)C4=CC5=C(C=C4)C=CC(=N5)C6=CC=CC=C6 (stereo not drawn); 67.6
13. Oc1cc(-c2nc(-c3ccccc3)[nH]c2-c2ccncc2)ccc1Cl; 122
14. O=C(O)CCCCCC(=O)NN=C1CCCC1; 114
15. CC[C@H]1OC(=O)[C@H](C)[C@@H](O[C@H]2C[C@@](C)(OC)[C@@H](O)[C@H](C)O2)[C@H](C)[C@@H](O[C@@H]2O[C@H](C)C[C@H](N(C)C)[C@H]2O)[C@](C)(OC)C[C@@H](C)C(=O)[C@H](C)[C@@H](O)[C@]1(C)O; 91.7
16. O=C(CN1C(=O)C2(CCCC2)NC[C@H]1c1cc(F)cc(F)c1)Nc1ccc2c(c1)C[C@@]1(C2)C(=O)Nc2ncccc21; 131
17. CN(C)c1nc(Cc2ccc(NC(=O)c3ccc(C(F)(F)F)cc3)cc2)nc(N(C)C)c1CC(=O)O; 100
18. Cc1cn2cc(C(=O)N(C)CCO)cc(N[C@@H]3CCOc4cccc(C)c43)c2n1; 107

The measured values listed here are drawn from the supplement of paper PMC11451515.
